Reference source for all entries: patent US20100168100A1

SYSTEM_UNDER_TEST: PI3Kα (Homo sapiens, UniProt P42336)
Construct: His
Sequence (P42336 whole entry): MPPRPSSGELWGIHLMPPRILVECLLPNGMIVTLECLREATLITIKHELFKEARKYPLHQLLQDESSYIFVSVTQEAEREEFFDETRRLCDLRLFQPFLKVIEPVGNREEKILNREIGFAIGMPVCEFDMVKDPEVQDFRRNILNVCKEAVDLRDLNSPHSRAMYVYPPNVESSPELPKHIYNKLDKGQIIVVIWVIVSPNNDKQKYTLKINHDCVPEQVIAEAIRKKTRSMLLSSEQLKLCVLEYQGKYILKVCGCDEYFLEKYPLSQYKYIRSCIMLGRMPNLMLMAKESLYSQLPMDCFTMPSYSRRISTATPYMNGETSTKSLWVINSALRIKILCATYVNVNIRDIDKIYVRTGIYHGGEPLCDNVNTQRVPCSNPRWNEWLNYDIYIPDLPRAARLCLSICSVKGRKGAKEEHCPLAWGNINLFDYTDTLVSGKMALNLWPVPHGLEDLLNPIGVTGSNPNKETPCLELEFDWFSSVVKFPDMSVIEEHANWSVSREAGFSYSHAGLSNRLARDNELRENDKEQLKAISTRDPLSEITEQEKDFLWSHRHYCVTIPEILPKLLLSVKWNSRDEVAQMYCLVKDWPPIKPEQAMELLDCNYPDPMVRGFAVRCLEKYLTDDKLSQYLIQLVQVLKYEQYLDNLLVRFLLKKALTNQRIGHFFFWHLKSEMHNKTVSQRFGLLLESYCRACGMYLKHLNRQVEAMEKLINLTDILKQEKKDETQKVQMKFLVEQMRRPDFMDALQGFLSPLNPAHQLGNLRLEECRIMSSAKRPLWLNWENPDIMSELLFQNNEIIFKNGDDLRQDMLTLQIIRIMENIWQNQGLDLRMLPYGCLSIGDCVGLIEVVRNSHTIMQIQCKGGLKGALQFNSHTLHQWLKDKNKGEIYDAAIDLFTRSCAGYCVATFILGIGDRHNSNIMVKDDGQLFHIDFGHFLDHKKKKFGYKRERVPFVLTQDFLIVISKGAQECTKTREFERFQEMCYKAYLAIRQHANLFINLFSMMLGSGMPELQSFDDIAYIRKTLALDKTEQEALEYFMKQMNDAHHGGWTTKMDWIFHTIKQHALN
Sequence (P27986 whole entry partner): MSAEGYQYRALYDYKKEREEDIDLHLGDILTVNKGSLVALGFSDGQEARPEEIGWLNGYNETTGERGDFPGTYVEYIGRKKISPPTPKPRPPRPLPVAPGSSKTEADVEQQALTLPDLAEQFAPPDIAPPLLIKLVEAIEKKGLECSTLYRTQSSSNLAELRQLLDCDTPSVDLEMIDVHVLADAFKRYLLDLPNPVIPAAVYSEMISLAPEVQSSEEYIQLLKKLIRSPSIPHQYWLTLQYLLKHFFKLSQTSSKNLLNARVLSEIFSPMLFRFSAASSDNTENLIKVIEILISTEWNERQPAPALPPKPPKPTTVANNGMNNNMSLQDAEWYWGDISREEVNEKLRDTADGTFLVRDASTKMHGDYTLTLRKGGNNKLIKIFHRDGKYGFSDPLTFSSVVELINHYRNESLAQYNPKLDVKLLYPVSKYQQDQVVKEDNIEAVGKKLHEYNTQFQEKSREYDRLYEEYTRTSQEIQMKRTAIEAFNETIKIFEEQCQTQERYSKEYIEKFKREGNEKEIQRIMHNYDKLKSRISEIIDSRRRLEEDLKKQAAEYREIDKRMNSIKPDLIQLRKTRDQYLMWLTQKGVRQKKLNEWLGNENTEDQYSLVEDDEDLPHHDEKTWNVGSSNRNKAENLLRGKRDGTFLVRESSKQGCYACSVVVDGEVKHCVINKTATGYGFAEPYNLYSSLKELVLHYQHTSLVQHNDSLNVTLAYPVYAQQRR
PROTOCOL_SUMMARY: PI3K Alpha Leadseeker SPA Assay
Assay type: biochemical
TEST_PARAMETERS: in at least one experimental run; read-out: IC50 against PI3Kα
Answer each item with its documented IC50.
Supply the numeric figure in nM, leaving out any unit text.

Input line: Hi! What's the reported IC50 for COc1ncc(-c2ccc3nccc(C4CCCC4)c3c2)cc1NS(=O)(=O)c1ccccc1 [Example 289] on PI3Kα (Homo sapiens, UniProt P42336)?
Output line: 2.5

Input line: What value of IC50 on PI3Kα (Homo sapiens, UniProt P42336) does CC1=Nc2ccc(-c3ccc4nccc(-c5ccncc5)c4c3)cc2S(=O)(=O)N1 [Example 154] have?
Output line: 316

Input line: Lab request: please report IC50 under test system PI3Kα (Homo sapiens, UniProt P42336) for Cc1ccccc1S(=O)(=O)Nc1cc(-c2ccc3nccc(-c4ccncc4)c3c2)cnc1Cl [Example 252]
Output line: 0.8

Input line: # query: IC50 | item NC(=O)Cn1cc(-c2ccnc3ccc(-c4cncc(S(=O)(=O)Nc5ccc(F)cc5F)c4)cc23)cn1 [Example 263] | system: PI3Kα (Homo sapiens, UniProt P42336)
Output line: 7.9
